tested_system: hCOX-2 (Homo sapiens, UniProt P35354)
Construct: purchased Sigma Aldrich Química S.A., Alcobendas, Spain; host or cells: Sf21 insect cells infected with recombinant baculovirus
assay_text: hCOX activity, TMPD oxidation with AA as substrate, microsomal recombinant hCOX-2 from Sf21 insect cells
Assay type: biochemical
experimental_context: COX-2 over COX-1; bounds use the highest concentration tested
Residues, ends and D or L forms follow the SMILES beside them.
We begin with a simple list: items and their reported Ratio, index of selectivity SI = [IC50(COX-2)]/[IC50(COX-1)].
Could you respond with only the numeric value?

Worked cases, Ratio, index of selectivity SI = [IC50(COX-2)]/[IC50(COX-1)] given:
[
  {
    "compound": "C[C@H](N)C(=O)N[C@@H](CCCNC(=N)N)C(=O)N[C@@H](C)C(=O)O [Peptide S6, ARA] (H-Ala-Arg-Ala-OH)",
    "reported": 0.8914
  },
  {
    "compound": "C[C@H](NC(=O)[C@H](CCCNC(=N)N)NC(=O)[C@@H](N)CCC(=O)O)C(=O)O [Peptide S2, ERA] (H-Glu-Arg-Ala-OH)",
    "reported": 0.8443
  }
]

We now examine a further compound.
Task: Give the measured Ratio, index of selectivity SI = [IC50(COX-2)]/[IC50(COX-1)] for N=C(N)NCCC[C@H](NC(=O)[C@H](CCC(=O)O)NC(=O)CN)C(=O)O [Peptide S4, GER] (H-Gly-Glu-Arg-OH)
Output: 0.8111

----------
// values below are reported pIC50
tested_system: hCOX-2 (Homo sapiens)
assay_text: hCOX activity, TMPD oxidation with AA as substrate, microsomal recombinant hCOX-2 from Sf21 insect cells
experimental_context: means ± SEM from five experiments; *** = no active at 500 μM; read-out: COX-2 (IC50)
Residues, ends and D or L forms follow the SMILES beside them.
When answering, recall that pIC50 equals minus log10 of the concentration in mol/L, and write that number alone.

Example compounds with recorded pIC50:
[
  {
    "compound": "C[C@H](NC(=O)[C@H](CCCNC(=N)N)NC(=O)[C@@H](N)CCC(=O)O)C(=O)O [Peptide S2, ERA] (H-Glu-Arg-Ala-OH)",
    "pIC50": 3.92
  },
  {
    "compound": "N=C(N)NCCC[C@H](NC(=O)[C@H](CCC(=O)O)NC(=O)CN)C(=O)O [Peptide S4, GER] (H-Gly-Glu-Arg-OH)",
    "pIC50": 4.09
  },
  {
    "compound": "NCC(=O)N[C@@H](Cc1c[nH]cn1)C(=O)N[C@@H](CCC(=O)O)C(=O)O [Peptide S3, Gly-His-Glu] (H-Gly-His-Glu-OH)",
    "pIC50": 4.02
  }
]

Task: Query pIC50 for N=C(N)NCCC[C@H](NC(=O)[C@@H](N)CC(=O)O)C(=O)N[C@@H](CS)C(=O)O [Peptide S5, DRC] (H-Asp-Arg-Cys-OH)
Output: 4.00

Task: Recall and state the measured pIC50 for C[C@H](N)C(=O)N[C@@H](CCC(=O)O)C(=O)N[C@@H](CCCNC(=N)N)C(=O)O [Peptide S9, AER] (H-Ala-Glu-Arg-OH) .
Output: 4.17

----------
tested_system: hCOX-2 (Homo sapiens)
assay_text: hCOX activity, TMPD oxidation with AA as substrate, microsomal recombinant hCOX-2 from Sf21 insect cells
experimental_context: means ± SEM from five experiments; *** = no active at 500 μM; read-out: COX-2 (IC50)
Residues, ends and D or L forms follow the SMILES beside them.
measured_property: pIC50
# pIC50 is unitless: minus log10 of the molar concentration; print number only

Examples from the recorded data:
[
  {
    "compound": "C[C@H](N)C(=O)NCC(=O)N[C@@H](CCCNC(=N)N)C(=O)O [Peptide S10, AGR] (H-Ala-Gly-Arg-OH)",
    "tested_system": "hCOX-2 (Homo sapiens)",
    "pIC50": 4.10
  },
  {
    "compound": "N=C(N)NCCC[C@H](NC(=O)[C@H](CCC(=O)O)NC(=O)[C@@H]1CCCN1)C(=O)O [Peptide S7, PER] (H-Pro-Glu-Arg-OH)",
    "tested_system": "hCOX-2 (Homo sapiens)",
    "pIC50": 4.05
  },
  {
    "compound": "CC[C@H](C)[C@H](NC(=O)[C@H](Cc1c[nH]cn1)NC(=O)[C@@H](N)CCCCN)C(=O)O [Peptide S8, KHI] (H-Lys-His-Ile-OH)",
    "tested_system": "hCOX-2 (Homo sapiens)",
    "pIC50": 4.04
  },
  {
    "compound": "C[C@H](N)C(=O)N[C@@H](CCCNC(=N)N)C(=O)N[C@@H](C)C(=O)O [Peptide S6, ARA] (H-Ala-Arg-Ala-OH)",
    "tested_system": "hCOX-2 (Homo sapiens)",
    "pIC50": 4.04
  }
]

Task: Find the measured pIC50 of CSCC[C@H](NC(=O)CN)C(=O)N[C@@H](CC(=O)O)C(=O)O [Peptide S1, Gly-Met-Asp] (H-Gly-Met-Asp-OH) and report it.
Output: 4.03

----------
tested_system: hCOX-2 (Homo sapiens)
Construct: purchased Sigma Aldrich Química S.A., Alcobendas, Spain; host or cells: Sf21 insect cells infected with recombinant baculovirus
Sequence (P35354 18-604): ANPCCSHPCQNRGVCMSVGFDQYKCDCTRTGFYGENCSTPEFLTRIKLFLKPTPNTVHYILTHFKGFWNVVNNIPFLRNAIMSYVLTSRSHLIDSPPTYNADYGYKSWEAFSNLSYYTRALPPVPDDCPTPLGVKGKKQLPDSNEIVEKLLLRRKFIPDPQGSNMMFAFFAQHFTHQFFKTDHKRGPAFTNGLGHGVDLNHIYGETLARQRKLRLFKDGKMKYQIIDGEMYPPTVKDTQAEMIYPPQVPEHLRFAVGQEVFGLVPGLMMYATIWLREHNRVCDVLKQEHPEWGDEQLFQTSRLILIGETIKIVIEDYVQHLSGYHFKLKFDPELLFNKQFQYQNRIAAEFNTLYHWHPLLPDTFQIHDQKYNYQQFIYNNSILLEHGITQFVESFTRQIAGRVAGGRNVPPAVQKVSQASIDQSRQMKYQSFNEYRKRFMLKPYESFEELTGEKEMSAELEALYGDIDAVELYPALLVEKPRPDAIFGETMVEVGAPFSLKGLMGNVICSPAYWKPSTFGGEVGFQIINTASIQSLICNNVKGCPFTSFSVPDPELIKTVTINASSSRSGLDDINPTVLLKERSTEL
assay_text: hCOX activity, TMPD oxidation with AA as substrate, microsomal recombinant hCOX-2 from Sf21 insect cells
Format: biochemical
experimental_context: COX-2 over COX-1; bounds use the highest concentration tested
Residues, ends and D or L forms follow the SMILES beside them.
measured_property: Ratio, index of selectivity SI = [IC50(COX-2)]/[IC50(COX-1)]
No unit in the answer, only the number.

Here's what some known entries look like.
[
  {
    "molecule": "N=C(N)NCCC[C@H](NC(=O)[C@H](CCC(=O)O)NC(=O)[C@@H]1CCCN1)C(=O)O [Peptide S7, PER] (H-Pro-Glu-Arg-OH)",
    "reported": 0.8792
  },
  {
    "molecule": "CC[C@H](C)[C@H](NC(=O)[C@H](Cc1c[nH]cn1)NC(=O)[C@@H](N)CCCCN)C(=O)O [Peptide S8, KHI] (H-Lys-His-Ile-OH)",
    "reported": 0.7484
  },
  {
    "molecule": "C[C@H](N)C(=O)NCC(=O)N[C@@H](CCCNC(=N)N)C(=O)O [Peptide S10, AGR] (H-Ala-Gly-Arg-OH)",
    "reported": 0.7991
  },
  {
    "molecule": "N=C(N)NCCC[C@H](NC(=O)[C@@H](N)CC(=O)O)C(=O)N[C@@H](CS)C(=O)O [Peptide S5, DRC] (H-Asp-Arg-Cys-OH)",
    "reported": 0.6195
  },
  {
    "molecule": "CSCC[C@H](NC(=O)CN)C(=O)N[C@@H](CC(=O)O)C(=O)O [Peptide S1, Gly-Met-Asp] (H-Gly-Met-Asp-OH)",
    "reported": 0.6255
  }
]

Read the next record carefully.
Task: Determine its reported Ratio, index of selectivity SI = [IC50(COX-2)]/[IC50(COX-1)]: NCC(=O)N[C@@H](Cc1c[nH]cn1)C(=O)N[C@@H](CCC(=O)O)C(=O)O [Peptide S3, Gly-His-Glu] (H-Gly-His-Glu-OH)
Output: 0.6225

----------
tested_system: hCOX-1 (Homo sapiens, UniProt P23219)
Sequence (P23219 24-599): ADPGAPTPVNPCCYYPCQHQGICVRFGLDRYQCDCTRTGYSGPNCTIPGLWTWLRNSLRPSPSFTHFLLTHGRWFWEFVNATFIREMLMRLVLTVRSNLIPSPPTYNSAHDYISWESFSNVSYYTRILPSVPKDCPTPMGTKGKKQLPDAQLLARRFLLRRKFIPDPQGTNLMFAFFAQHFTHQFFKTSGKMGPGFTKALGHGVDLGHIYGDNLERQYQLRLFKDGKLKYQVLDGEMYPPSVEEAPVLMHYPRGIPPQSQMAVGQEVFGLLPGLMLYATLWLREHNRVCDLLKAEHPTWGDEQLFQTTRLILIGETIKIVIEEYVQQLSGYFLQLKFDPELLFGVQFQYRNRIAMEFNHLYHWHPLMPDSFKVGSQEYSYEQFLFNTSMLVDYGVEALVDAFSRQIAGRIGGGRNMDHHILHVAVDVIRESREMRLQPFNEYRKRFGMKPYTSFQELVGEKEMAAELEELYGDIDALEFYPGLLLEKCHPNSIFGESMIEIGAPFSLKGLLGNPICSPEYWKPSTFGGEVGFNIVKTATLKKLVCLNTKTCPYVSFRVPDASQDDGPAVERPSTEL
Residues, ends and D or L forms follow the SMILES beside them.
measured_property: IC50 (µM)
Give the number; µM is assumed, so skip it.

Worked cases, answers included:
[
  {
    "compound": "N=C(N)NCCC[C@H](NC(=O)[C@H](CCC(=O)O)NC(=O)CN)C(=O)O [Peptide S4, GER] (H-Gly-Glu-Arg-OH)",
    "measured_property": "IC50",
    "reported": 99.3
  },
  {
    "compound": "COc1ccc(-c2nc(C(=O)N3CCN(C)CC3)sc2-c2ccc(OC)cc2)cc1 [FR122047, reference compound]",
    "measured_property": "IC50",
    "reported": 93.8
  }
]

Task: Would you please give the reported IC50 of NCC(=O)N[C@@H](Cc1c[nH]cn1)C(=O)N[C@@H](CCC(=O)O)C(=O)O [Peptide S3, Gly-His-Glu] (H-Gly-His-Glu-OH) with hCOX-1 (Homo sapiens, UniProt P23219)?
Output: 152

Task: Consider the compound CC[C@H](C)[C@H](NC(=O)[C@H](Cc1c[nH]cn1)NC(=O)[C@@H](N)CCCCN)C(=O)O [Peptide S8, KHI] (H-Lys-His-Ile-OH) tested on hCOX-1 (Homo sapiens, UniProt P23219); state its IC50.
Output: 122

Task: Look up and report measured IC50 (hCOX-1 (Homo sapiens, UniProt P23219)) for the following compound: C[C@H](NC(=O)[C@H](CCCNC(=N)N)NC(=O)[C@@H](N)CCC(=O)O)C(=O)O [Peptide S2, ERA] (H-Glu-Arg-Ala-OH)
Output: 143

Task: # return IC50 for C[C@H](N)C(=O)N[C@@H](CCCNC(=N)N)C(=O)N[C@@H](C)C(=O)O [Peptide S6, ARA] (H-Ala-Arg-Ala-OH) , test system: hCOX-1 (Homo sapiens, UniProt P23219)
Output: 102

Task: Please respond with reported IC50 (system hCOX-1 (Homo sapiens, UniProt P23219)) for N=C(N)NCCC[C@H](NC(=O)[C@H](CCC(=O)O)NC(=O)[C@@H]1CCCN1)C(=O)O [Peptide S7, PER] (H-Pro-Glu-Arg-OH) .
Output: 100

Task: Enter IC50 (test system hCOX-1 (Homo sapiens, UniProt P23219)) for N=C(N)NCCC[C@H](NC(=O)[C@@H](N)CC(=O)O)C(=O)N[C@@H](CS)C(=O)O [Peptide S5, DRC] (H-Asp-Arg-Cys-OH)
Output: 161

Task: For hCOX-1 (Homo sapiens, UniProt P23219), give the measured IC50 of the entry C[C@H](N)C(=O)NCC(=O)N[C@@H](CCCNC(=N)N)C(=O)O [Peptide S10, AGR] (H-Ala-Gly-Arg-OH)
Output: 99.1

Task: Answer briefly: IC50 recorded on hCOX-1 (Homo sapiens, UniProt P23219) for C[C@H](N)C(=O)N[C@@H](CCC(=O)O)C(=O)N[C@@H](CCCNC(=N)N)C(=O)O [Peptide S9, AER] (H-Ala-Glu-Arg-OH)
Output: 222

Task: Would you please give the reported IC50 of CSCC[C@H](NC(=O)CN)C(=O)N[C@@H](CC(=O)O)C(=O)O [Peptide S1, Gly-Met-Asp] (H-Gly-Met-Asp-OH) with hCOX-1 (Homo sapiens, UniProt P23219)?
Output: 150
